Measured viability, T/C of individual entries
- Tested on: KRAS-mutant PDC complex spheroid viability
- experiment: Anticancer human tumor 186277-243-T-J2-PDC patient-derived colon adenocarcinoma cell line growth inhibition [KRAS2]
- measurement_parameters: second compound 1 µM; first compound 1 µM; stronger effect = lower value

| compound | viability, T/C [%] |
| --- | --- |
| COc1cc(Nc2ncc3c(n2)-c2ccc(Cl)cc2C(c2c(F)cccc2OC)=NC3)ccc1C(=O)O + C=CC(=O)N1CCN(c2nc(OCC3CCCN3C)nc3c2CCN(c2cccc4cccc(C)c24)C3)CC1CC#N | 25.3 |
| CC1OCC2(CCN(c3cnc(Sc4ccnc(N)c4Cl)c(N)n3)CC2)C1N (stereo not drawn) + C=CC(=O)N1CCN(c2nc(=O)n(-c3c(C)ccnc3C(C)C)c3nc(-c4c(O)cccc4F)c(F)cc23)C(C)C1 | 90.1 |
| CC1OCC2(CCN(c3cnc(Sc4ccnc(N)c4Cl)c(N)n3)CC2)C1N (stereo not drawn) + CNCc1ccccc1-c1csc(C(C)Nc2nc(C)nc3cc(OC)c(OC)cc23)c1 | 105 |

====

- Test system: KRAS-mutant PDC complex spheroid viability
- experiment: Anticancer human tumor 186277-243-T-J2-PDC cell line growth inhibition [KRAS2]; active means viability on the fitted dose curve at most 10% of control; inactive means the rest;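 further: viability read after seven days of compound exposure; 100% = DMSO vehicle-treated spheroids so lower means less viable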
- measurement_parameters: second compound 0.316 µM; first compound 0.0316 µM
Outcomes: active, inactive

| compound | test_target | label_class |
| --- | --- | --- |
| Cn1nccc1Nc1nccc(-c2cc3c(s2)C(C)(C)N(CCN2CCOCC2)C3=O)n1 + CC1OCC2(CCN(c3cnc(Sc4ccnc(N)c4Cl)c(N)n3)CC2)C1N | KRAS-mutant PDC complex spheroid viability | inactive |
| COc1cc2nccc(Oc3ccc(NC(=O)C4(C(=O)Nc5ccc(F)cc5)CC4)cc3)c2cc1OC + COc1cc2nc(C)nc(NC(C)c3cc(N)cc(C(F)(F)F)c3)c2cc1OC1CCOC1 | KRAS-mutant PDC complex spheroid viability | inactive |
| CC(=O)Nc1cccc(-n2c(=O)n(C3CC3)c(=O)c3c(Nc4ccc(I)cc4F)n(C)c(=O)c(C)c32)c1 + COc1cc2nc(C)nc(NC(C)c3cc(N)cc(C(F)(F)F)c3)c2cc1OC1CCOC1 | KRAS-mutant PDC complex spheroid viability | active |
| Cn1ncnc1[C@H]1c2n[nH]c(=O)c3cc(F)cc(c23)N[C@@H]1c1ccc(F)cc1 + CNCc1ccccc1-c1csc(C(C)Nc2nc(C)nc3cc(OC)c(OC)cc23)c1 | KRAS-mutant PDC complex spheroid viability | inactive |
| CC1OCC2(CCN(c3cnc(Sc4ccnc(N)c4Cl)c(N)n3)CC2)C1N (stereo unspecified) + C=CC(=O)N1CCN(c2nc(OCC3CCCN3C)nc3c2CCN(c2cccc4cccc(C)c24)C3)CC1CC#N | KRAS-mutant PDC complex spheroid viability | inactive |
| COc1cc2nccc(Oc3ccc(NC(=O)C4(C(=O)Nc5ccc(F)cc5)CC4)cc3)c2cc1OC + CC1OCC2(CCN(c3cnc(Sc4ccnc(N)c4Cl)c(N)n3)CC2)C1N | KRAS-mutant PDC complex spheroid viability | inactive |
| O=C(c1cc(Cc2n[nH]c(=O)c3ccccc23)ccc1F)N1CCN(C(=O)C2CC2)CC1 + CC1OCC2(CCN(c3cnc(Sc4ccnc(N)c4Cl)c(N)n3)CC2)C1N | KRAS-mutant PDC complex spheroid viability | inactive |
| CC1COCCN1c1cc(-c2ccnn2C)c2ccnc(-c3ccn[nH]3)c2n1 (stereo unspecified) + CC1OCC2(CCN(c3cnc(Sc4ccnc(N)c4Cl)c(N)n3)CC2)C1N | KRAS-mutant PDC complex spheroid viability | inactive |
| CC1COCCN1c1cc(-c2ccnn2C)c2ccnc(-c3ccn[nH]3)c2n1 (stereo unspecified) + C=CC(=O)N1CCN(c2nc(OCC3CCCN3C)nc3c2CCN(c2cccc4cccc(C)c24)C3)CC1CC#N | KRAS-mutant PDC complex spheroid viability | inactive |
| CC(C)n1nc(-c2ccc3oc(N)nc3c2)c2c(N)ncnc21 + COc1cc2nc(C)nc(NC(C)c3cc(N)cc(C(F)(F)F)c3)c2cc1OC1CCOC1 | KRAS-mutant PDC complex spheroid viability | inactive |
| CC1OCC2(CCN(c3cnc(Sc4ccnc(N)c4Cl)c(N)n3)CC2)C1N (stereo unspecified) + COc1cc2nc(C)nc(NC(C)c3cc(N)cc(C(F)(F)F)c3)c2cc1OC1CCOC1 | KRAS-mutant PDC complex spheroid viability | inactive |
| CC(=O)Nc1cccc(-n2c(=O)n(C3CC3)c(=O)c3c(Nc4ccc(I)cc4F)n(C)c(=O)c(C)c32)c1 + CC1OCC2(CCN(c3cnc(Sc4ccnc(N)c4Cl)c(N)n3)CC2)C1N | KRAS-mutant PDC complex spheroid viability | active |
| COC(=O)c1ccc2c(C(=Nc3ccc(N(C)C(=O)CN4CCN(C)CC4)cc3)c3ccccc3)c(O)[nH]c2c1 + CNCc1ccccc1-c1csc(C(C)Nc2nc(C)nc3cc(OC)c(OC)cc23)c1 | KRAS-mutant PDC complex spheroid viability | inactive |
| CN(C)C/C=C/C(=O)Nc1cc2c(Nc3ccc(F)c(Cl)c3)ncnc2cc1O[C@H]1CCOC1 + CNCc1ccccc1-c1csc(C(C)Nc2nc(C)nc3cc(OC)c(OC)cc23)c1 | KRAS-mutant PDC complex spheroid viability | inactive |
| O=C(c1cc(Cc2n[nH]c(=O)c3ccccc23)ccc1F)N1CCN(C(=O)C2CC2)CC1 + C=CC(=O)N1CCN(c2nc(OCC3CCCN3C)nc3c2CCN(c2cccc4cccc(C)c24)C3)CC1CC#N | KRAS-mutant PDC complex spheroid viability | inactive |
| CCN1CCN(Cc2ccc(Nc3ncc(F)c(-c4cc(F)c5nc(C)n(C(C)C)c5c4)n3)nc2)CC1 + C=CC(=O)N1CCN(c2nc(=O)n(-c3c(C)ccnc3C(C)C)c3nc(-c4c(O)cccc4F)c(F)cc23)C(C)C1 | KRAS-mutant PDC complex spheroid viability | inactive |
| CC1(C)CCC(CN2CCN(c3ccc(C(=O)NS(=O)(=O)c4ccc(NCC5CCOCC5)c([N+](=O)[O-])c4)c(Oc4cnc5[nH]ccc5c4)c3)CC2)=C(c2ccc(Cl)cc2)C1 + C=CC(=O)N1CCN(c2nc(OCC3CCCN3C)nc3c2CCN(c2cccc4cccc(C)c24)C3)CC1CC#N | KRAS-mutant PDC complex spheroid viability | inactive |
| COc1cc2nccc(Oc3ccc(NC(=O)C4(C(=O)Nc5ccc(F)cc5)CC4)cc3)c2cc1OC + CNCc1ccccc1-c1csc(C(C)Nc2nc(C)nc3cc(OC)c(OC)cc23)c1 | KRAS-mutant PDC complex spheroid viability | inactive |
| CC1COCCN1c1cc(-c2ccnn2C)c2ccnc(-c3ccn[nH]3)c2n1 (stereo unspecified) + COc1cc2nc(C)nc(NC(C)c3cc(N)cc(C(F)(F)F)c3)c2cc1OC1CCOC1 | KRAS-mutant PDC complex spheroid viability | inactive |
| CCN1CCN(Cc2ccc(Nc3ncc(F)c(-c4cc(F)c5nc(C)n(C(C)C)c5c4)n3)nc2)CC1 + COc1cc2nc(C)nc(NC(C)c3cc(N)cc(C(F)(F)F)c3)c2cc1OC1CCOC1 | KRAS-mutant PDC complex spheroid viability | inactive |
| Cn1nccc1Nc1nccc(-c2cc3c(s2)C(C)(C)N(CCN2CCOCC2)C3=O)n1 + CNCc1ccccc1-c1csc(C(C)Nc2nc(C)nc3cc(OC)c(OC)cc23)c1 | KRAS-mutant PDC complex spheroid viability | inactive |

====

- System: KRAS-mutant PDC complex spheroid viability
- experiment: Anticancer human tumor 186277-243-T-J2-PDC cell line growth inhibition [KRAS2];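 further: viability read after seven days of compound exposure; 100% = DMSO vehicle-treated spheroids so lower means less viable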
- measurement_parameters: second compound 1 µM; first compound 10 µM; stronger effect = lower value
Measured viability, T/C of individual entries
experimental_endpoint: viability, T/C

| molecule | observed |
| --- | --- |
| COC(=O)c1ccc2c(C(=Nc3ccc(N(C)C(=O)CN4CCN(C)CC4)cc3)c3ccccc3)c(O)[nH]c2c1 + C=CC(=O)N1CCN(c2nc(OCC3CCCN3C)nc3c2CCN(c2cccc4cccc(C)c24)C3)CC1CC#N | 1.01% |
| CC1(C)CCC(CN2CCN(c3ccc(C(=O)NS(=O)(=O)c4ccc(NCC5CCOCC5)c([N+](=O)[O-])c4)c(Oc4cnc5[nH]ccc5c4)c3)CC2)=C(c2ccc(Cl)cc2)C1 + C=CC(=O)N1CCN(c2nc(OCC3CCCN3C)nc3c2CCN(c2cccc4cccc(C)c24)C3)CC1CC#N | 0.35% |
| Cn1nccc1Nc1nccc(-c2cc3c(s2)C(C)(C)N(CCN2CCOCC2)C3=O)n1 + CC1OCC2(CCN(c3cnc(Sc4ccnc(N)c4Cl)c(N)n3)CC2)C1N | 3.66% |
| CC1OCC2(CCN(c3cnc(Sc4ccnc(N)c4Cl)c(N)n3)CC2)C1N (stereo not given) + C=CC(=O)N1CCN(c2nc(OCC3CCCN3C)nc3c2CCN(c2cccc4cccc(C)c24)C3)CC1CC#N | 88.5% |
| Cn1nccc1Nc1nccc(-c2cc3c(s2)C(C)(C)N(CCN2CCOCC2)C3=O)n1 + C=CC(=O)N1CCN(c2nc(OCC3CCCN3C)nc3c2CCN(c2cccc4cccc(C)c24)C3)CC1CC#N | 4.26% |

Data provenance: PubChem BioAssay AID1963875
